- ASSAY: Tmax in iv/po dosed mouse plasma by LC-MS/MS analysis
- Format: ADME, organism-based
Parameter Tmax: see the listing below.
Quick note: unit goes after the number.

Sample records with Tmax:
>>> df
                         chemical_structure  measurement
0  CC(C)(C)[C@H](NC(=O)[C@H](CC1CCCC1)CN(O)C=O)C(=O)N1CCC(NCc2ccc(C#N)cc2)CC1       30 min
1  CC(C)(C)[C@H](NC(=O)[C@H](CC1CCCC1)CN(O)C=O)C(=O)N1CCC(NC(=O)c2ccc(C#N)cc2)CC1     40.2 min

Query block: Consider the compound shown here: CC(C)(C)[C@H](NC(=O)[C@H](CC1CCCC1)CN(O)C=O)C(=O)N1CCC(NCc2cc(F)c(F)cc2F)CC1 What is its recorded Tmax?
Result block: 30 min

* * *

- System: Staphylococcus aureus
- ASSAY: Antibacterial activity against methicillin-resistant Staphylococcus aureus after 24 hrs by microdilution method
- Format: functional
TEST READOUT: MIC (µg/mL)
Give the quantity in µg/mL, number only.

Reference set, count: 4
CHEMICAL STRUCTURE	TEST READOUT	UNIT TEXT	MEASUREMENT
CC(C)(C)[C@H](NC(=O)[C@H](CC1CCCC1)CN(O)C=O)C(=O)N1CCC(NCc2ccc3[nH]ccc3c2)CC1	MIC	µg/mL	6.3
CC(C)(C)[C@H](NC(=O)[C@H](CC1CCCC1)CN(O)C=O)C(=O)N1CCC(NCc2nc3ccccc3[nH]2)CC1	MIC	µg/mL	6.3
COc1ccc(CNC2CCN(C(=O)[C@@H](NC(=O)[C@H](CC3CCCC3)CN(O)C=O)C(C)(C)C)CC2)c(OC)c1	MIC	µg/mL	25
CC(C)(C)[C@H](NC(=O)[C@H](CC1CCCC1)CN(O)C=O)C(=O)N1CCC(NCc2ccccn2)CC1	MIC	µg/mL	25

Query block: Recorded MIC for CC(C)(C)[C@H](NC(=O)[C@H](CC1CCCC1)CN(O)C=O)C(=O)N1CCC(NCc2ccco2)CC1 , please?
Result block: 50

Query block: Next up: COC(=O)c1ccc(CNC2CCN(C(=O)[C@@H](NC(=O)[C@H](CC3CCCC3)CN(O)C=O)C(C)(C)C)CC2)cc1
Result block: 12.5

Query block: Okay, and CC(C)(C)[C@H](NC(=O)[C@H](CC1CCCC1)CN(O)C=O)C(=O)N1CCC(NCc2ccc3c(c2)OCO3)CC1 ?
Result block: 6.3

Query block: Record: Cc1ccc(CNC2CCN(C(=O)[C@@H](NC(=O)[C@H](CC3CCCC3)CN(O)C=O)C(C)(C)C)CC2)cc1
Result block: 6.3

Query block: How about this molecule: CC(C)(C)[C@H](NC(=O)[C@H](CC1CCCC1)CN(O)C=O)C(=O)N1CCC(Nc2ccc3cn[nH]c3c2)CC1
Result block: 12.5

Query block: Now consider CN[C@@H](CC(C)C)C(=O)N[C@H]1C(=O)N[C@@H](CC(N)=O)C(=O)N[C@H]2C(=O)N[C@H]3C(=O)N[C@H](C(=O)N[C@@H](C(=O)O)c4cc(O)cc(O)c4-c4cc3ccc4O)[C@H](O)c3ccc(c(Cl)c3)Oc3cc2cc(c3O[C@H]2O[C@@H](CO)[C@H](O)[C@@H](O)[C@@H]2O[C@@H]2C[C@@](C)(N)[C@@H](O)[C@@H](C)O2)Oc2ccc(cc2Cl)[C@H]1O and answer again.
Result block: 3.1
